Listing of entries alongside the reported growth.
Tested on: SK-MEL-2 melanoma
PROCEDURE DETAILS: NCI-60 one-dose screen, 48 h (100 = growth as untreated, 0 = no growth, -100 = all killed)
CONDITION DESCRIPTION: 10 µM unless noted
The panel holds about 83,000 compounds, 20% with a hit somewhere; the sample as a whole holds those more often.
Respond numerically; units are % and should not be typed.

Recorded results for 4 compounds are shown here.
{"COMPOUND": "O=C1[C@H]2Cc3c([nH]c4ccccc34)[C@H](c3ccc(Cl)cc3)N2C(=O)CN1C1CCN(Cc2c(Cl)cccc2Cl)CC1", "TESTED ON": "SK-MEL-2 melanoma", "UNIT DESCRIPTOR": "%", "growth": 106}
{"COMPOUND": "O=[N+]([O-])c1ccc(-c2nnc(SCc3ccc(O)c4ncccc34)n2-c2ccccc2)cc1", "TESTED ON": "SK-MEL-2 melanoma", "UNIT DESCRIPTOR": "%", "growth": 13.8}
{"COMPOUND": "C#CCOc1ccc(C(Nc2ccc(OC)cc2)c2nnnn2C2CCCCC2)cc1 (stereo not given)", "TESTED ON": "SK-MEL-2 melanoma", "UNIT DESCRIPTOR": "%", "growth": 104}
{"COMPOUND": "Cc1ccc(-n2cc(/C=C/C(=O)c3ccc(S(C)(=O)=O)cc3)c(-c3ccc(S(C)(=O)=O)cc3)n2)cc1", "TESTED ON": "SK-MEL-2 melanoma", "UNIT DESCRIPTOR": "%", "growth": 107}

Summary line: "CC1CCN(S(=O)(=O)c2ncsc2-c2ccccc2)CC1" , SK-MEL-2 melanoma, reported growth = 96.2
